FYI, the data here is from patent EP3409295A1.

Details: oral administration, 50 mg/kg, SD rats
Listed here: items and their measured Cmax.
Number only, no unit.

molecule_smiles	Cmax
CN1CC[C@]23c4c5ccc(O)c4O[C@H]2[C@@H](OCCOCCOCCO[C@H]2C=C[C@H]4[C@H]6Cc7ccc(O)c8c7[C@@]4(CCN6C)[C@H]2O8)C=C[C@H]3[C@H]1C5	12
CN1CC[C@]23c4c5ccc(O)c4O[C@H]2[C@@H](OCCOCCOCCOCCOCCO[C@H]2C=C[C@H]4[C@H]6Cc7ccc(O)c8c7[C@@]4(CCN6C)[C@H]2O8)C=C[C@H]3[C@H]1C5	75
CN1CC[C@]23c4c5ccc(O)c4O[C@H]2[C@@H](OCCOCCOCCOCCOCCOCCO[C@H]2C=C[C@H]4[C@H]6Cc7ccc(O)c8c7[C@@]4(CCN6C)[C@H]2O8)C=C[C@H]3[C@H]1C5	54

Entry CN1CC[C@]23c4c5ccc(O)c4O[C@H]2[C@@H](OCCOCCO[C@H]2C=C[C@H]4[C@H]6Cc7ccc(O)c8c7[C@@]4(CCN6C)[C@H]2O8)C=C[C@H]3[C@H]1C5 , Cmax reported as 18

Entry CN1CC[C@]23c4c5ccc(O)c4O[C@H]2[C@@H](OCCOCCOCCOCCOCCOCCOCCOCCOCCO[C@H]2C=C[C@H]4[C@H]6Cc7ccc(O)c8c7[C@@]4(CCN6C)[C@H]2O8)C=C[C@H]3[C@H]1C5 , Cmax reported as 11

* * *

Listed here: items and their measured Cmax.
Conditions: oral administration, 50 mg/kg, SD rats
Number only, no unit.

molecule	Cmax
CN1CC[C@]23c4c5ccc(O)c4O[C@H]2[C@@H](OCCO[C@H]2C=C[C@H]4[C@H]6Cc7ccc(O)c8c7[C@@]4(CCN6C)[C@H]2O8)C=C[C@H]3[C@H]1C5 [α-6-O-PEG1-(morphine)2]	56
CN1CC[C@]23c4c5ccc(O)c4O[C@H]2[C@@H](OCCOCCOCCOCCOCCOCCOCCOCCO[C@H]2C=C[C@H]4[C@H]6Cc7ccc(O)c8c7[C@@]4(CCN6C)[C@H]2O8)C=C[C@H]3[C@H]1C5 [α-6-O-PEG8-(morphine)2]	22

Entry CN1CC[C@]23c4c5ccc(O)c4O[C@H]2[C@@H](OCCOCCOCCOCCO[C@H]2C=C[C@H]4[C@H]6Cc7ccc(O)c8c7[C@@]4(CCN6C)[C@H]2O8)C=C[C@H]3[C@H]1C5 [α-6-O-PEG4-(morphine)2] , Cmax reported as 47

* * *

Test: in vivo
Details: female, SD, rat, iv, 5 mg/kg
assay_metric: tissue level at time at 1 h

The examples below pair each entry with its known result.
molecule_smiles	tissue level at time at 1 h
CN1CC[C@]23c4c5ccc(O)c4O[C@H]2[C@@H](OCCOCCOCCOCCOCCOCCO[C@H]2C=C[C@H]4[C@H]6Cc7ccc(O)c8c7[C@@]4(CCN6C)[C@H]2O8)C=C[C@H]3[C@H]1C5	133 ng/g
COc1ccc2c3c1O[C@H]1[C@@H](OCCOCCOCCOCCOCCOCCO[C@H]4C=C[C@H]5[C@H]6Cc7ccc(OC)c8c7[C@@]5(CCN6C)[C@H]4O8)C=C[C@H]4[C@@H](C2)N(C)CC[C@@]341	100 ng/g
CN1CC[C@]23c4c5ccc(O)c4O[C@H]2[C@@H](OCCOCCOCCOCCOCCOCCOCCO[C@H]2C=C[C@H]4[C@H]6Cc7ccc(O)c8c7[C@@]4(CCN6C)[C@H]2O8)C=C[C@H]3[C@H]1C5	111 ng/g

With those in mind, consider the next molecule.
Entry CN1CC[C@]23c4c5ccc(O)c4O[C@H]2[C@@H](OCCOCCOCCOCCOCCOCCOCCOCCOCCO[C@H]2C=C[C@H]4[C@H]6Cc7ccc(O)c8c7[C@@]4(CCN6C)[C@H]2O8)C=C[C@H]3[C@H]1C5 , tissue level at time at 1 h reported as 125 ng/g
